Tested on: HCC-1954 breast cancer cell line
experimental_details: Alamar Blue cell proliferation assay
Assay type: cell-based
test_settings: Homo sapiens, HCC1954, 72 h, HCC-1954, 10% FBS, read-out: EC50 (nM), IC50 values for inhibition of cell proliferation
measurement_label: IC50 (nM)

>  <line_notation>
O=C1Nc2ccccc2C1(c1ccc(O)cc1)c1ccc(O)cc1

>  <tested_target>
HCC-1954 breast cancer cell line

>  <observed_value>
912

$$$$

---

Test system: PC-3/M prostate cancer cell line
experimental_details: Alamar Blue cell proliferation assay
Type: cell-based
test_settings: Homo sapiens, 10% FBS, 72 hours, read-out: EC50 (nM), IC50 values for inhibition of cell proliferation
measurement_label: IC50

>  <molecule>
O=C1Nc2ccccc2C1(c1ccc(O)cc1)c1ccc(O)cc1 [Oxyphenisatine]

>  <measurement_label>
IC50

>  <observed_value>
> 3000 nM

$$$$

---

Test system: T47-D breast cancer cell line
experimental_details: Alamar Blue cell proliferation assay
Format: cell-based
test_settings: Homo sapiens, T47D, 72 h, 10% FBS, read-out: EC50 (nM), IC50 values for inhibition of cell proliferation

>  <molecule>
O=C1Nc2ccccc2C1(c1ccc(O)cc1)c1ccc(O)cc1 [Oxyphenisatine]

>  <result_unit>
nM

>  <IC50>
324

$$$$

---

Test system: non-transformed human breast epithelial cell line MCF10A
experimental_details: Alamar Blue cell proliferation assay
Assay type: cell-based
test_settings: MCF-10A, serum-free MEGM medium, 72 hours, read-out: EC50 (nM), IC50 values for inhibition of cell proliferation

>  <molecule>
O=C1Nc2ccccc2C1(c1ccc(O)cc1)c1ccc(O)cc1 [Oxyphenisatine]

>  <IC50>
> 3000 nM

$$$$
